Target: T1, mouse FGFR2b (mouse, UniProt P21803)
T1 chain: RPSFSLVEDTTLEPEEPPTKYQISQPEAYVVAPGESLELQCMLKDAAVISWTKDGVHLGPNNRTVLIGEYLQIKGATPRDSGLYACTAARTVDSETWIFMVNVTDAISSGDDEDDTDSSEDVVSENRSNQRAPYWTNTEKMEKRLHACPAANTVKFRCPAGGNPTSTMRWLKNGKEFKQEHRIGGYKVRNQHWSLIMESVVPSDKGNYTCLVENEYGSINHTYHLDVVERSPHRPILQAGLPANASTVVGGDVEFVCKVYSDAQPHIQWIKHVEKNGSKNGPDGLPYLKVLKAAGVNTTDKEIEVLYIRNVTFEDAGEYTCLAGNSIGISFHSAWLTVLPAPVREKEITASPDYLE
Experiment: BLI
Each entry below lists one item and its recorded pKd value.
Scale: pKd equals -log10([C]), with [C] in mol/L.

Please supply the value of reported pKd for the item 1A3 (antibody, V domains shown) VH: QVQLQQPGAELVKPGASVKMSCKASGYTFASYNLHWVKQTPGQGLEWIGLIYPENGDTSYNQKFKGKATLTADKSSSTAYIQLSSLTSEDSAVYFCARGGFDYWGQGTTLTVSQ VL: DIQMTQSPASLSASVGETVTITCGASENIYGALNWYQRKQGKSPQLLIYGATNLADGMSSRFSGSGSGRQYSLKISSLHPDDVATYYCQNVLSTPYTFGGGTKLEIK 7.00

Please supply the value of reported pKd for the item 3B7 (antibody, V domains shown) VH: EVQLQQSGAELVKPGASVKMSCKASGYTFRYYNMHWVKRTPGQGLEWIGLIYPDNGDTSYNQKFKGKATLTADTSSSTAYMQLSSLTSEDSAVYYCARGGFDYWGQGTTLTVSS VL: DIQMTQSPASLSASVGETVTITCGASENIYGALNWYQRKQGKSPQLLIYGATNLADGMSSRFSGSGSGRQYSLKISSLHPDDVATYYCQNVLSTPYTFGGGTKLELK 7.47

Please supply the value of reported pKd for the item 3E7 (antibody, V domains shown) VH: QVQLQQSGAELVKPGASVKMSCKASGYTFTIYNIHWVRQTPGQGLEWIGLIYPDNGDTSYNQKFKAKATLTADKSSSTAYMQLSSLTSEDSAVYYCARGGFDYWGQGTTLTVSS VL: NIVMTQSQKFMSTSVGDRVSVTCKASQNVGTNVAWYQQKPGQSPKALIYSASYRYSGVPDRFTGSGSGTDFTLTISGVQAEDLADYYCQQHYNTPYTFGGGTKLEIK 7.39
